# test-target: T1, topo VI H2TH-EEE (Methanosarcina mazei, UniProt Q8PUB7;Q8PUB8 1-369;1-621, R263E;K268E;K308E)
# T1 sequence 1: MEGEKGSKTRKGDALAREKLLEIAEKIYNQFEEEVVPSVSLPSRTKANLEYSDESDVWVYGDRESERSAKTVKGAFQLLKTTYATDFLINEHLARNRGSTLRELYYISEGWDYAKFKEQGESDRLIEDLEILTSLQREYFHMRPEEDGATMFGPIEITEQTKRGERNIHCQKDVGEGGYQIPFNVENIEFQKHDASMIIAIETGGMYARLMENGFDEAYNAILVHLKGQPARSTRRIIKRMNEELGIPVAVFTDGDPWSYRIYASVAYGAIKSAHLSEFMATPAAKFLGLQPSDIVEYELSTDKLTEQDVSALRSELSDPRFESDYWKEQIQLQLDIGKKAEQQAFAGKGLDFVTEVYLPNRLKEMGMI
# T1 sequence 2: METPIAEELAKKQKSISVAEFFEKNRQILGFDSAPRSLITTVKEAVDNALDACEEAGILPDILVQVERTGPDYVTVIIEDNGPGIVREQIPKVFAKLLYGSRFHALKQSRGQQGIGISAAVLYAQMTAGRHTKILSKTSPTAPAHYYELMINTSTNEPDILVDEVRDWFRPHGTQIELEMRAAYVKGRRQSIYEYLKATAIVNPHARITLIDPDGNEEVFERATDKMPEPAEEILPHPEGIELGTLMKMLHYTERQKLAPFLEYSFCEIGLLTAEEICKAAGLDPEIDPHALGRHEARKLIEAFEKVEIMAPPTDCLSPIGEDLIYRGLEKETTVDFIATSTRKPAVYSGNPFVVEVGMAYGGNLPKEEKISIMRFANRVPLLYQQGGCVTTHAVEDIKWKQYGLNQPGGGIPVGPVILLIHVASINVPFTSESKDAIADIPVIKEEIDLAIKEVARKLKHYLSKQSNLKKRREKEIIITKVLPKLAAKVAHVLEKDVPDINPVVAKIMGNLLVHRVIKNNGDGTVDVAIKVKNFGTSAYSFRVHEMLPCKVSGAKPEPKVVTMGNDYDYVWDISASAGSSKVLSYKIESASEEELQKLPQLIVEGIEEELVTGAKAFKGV
# test: fluorescence anisotropy; Fluorescence anisotropy, 20 nM FAM-labelled DNA, topo VI 0 and 3.9-4000 nM, no nucleotide; buffer, salt, pH and temperature not given in supplied text
# measurement-context: protein: recombinant; tags: N-terminal His6-TEV on Top6B, removed; chain copies: 2;2; label: 5'-FAM strand 1; blunt
endpoint: pKd
// scale note: pKd = -log10(conc_M); give the bare number

Data request: Record request: pKd value, item 20 bp duplex (dsDNA) DNA 1: CGGAAGAGTATGAGTATTCG DNA 2: CGAATACTCATACTCTTCCG
Data returned: 6.65
